- subject of test: CaM kinase II (Homo sapiens, UniProt Q13557+Q13555+Q13554+Q9UQM7)
- experiment notes: Inhibitory activity of compound against CaMKII
- Assay type: protein assay
Where a SMILES comes first, the peptide text is derived from it. The star is where a group is joined. X1 = O=C(OCc1ccccc1[N+](=O)[O-])*; Cbz = O=C(OCc1ccccc1)*
measured endpoint: IC50 (nM)
A number alone suffices; assume nM.

Below, each entry is followed by its recorded IC50 result.
compound | subject of test | unit label | readout value
CC(C)C[C@H](NC(=O)[C@H](C)NC(=O)[C@H](CC(=O)O)NC(=O)[C@@H](NC(=O)[C@H](C)NC(=O)[C@H](CCC(=O)O)NC(=O)[C@H](CCC(N)=O)NC(=O)[C@H](CCCN=C(N)N)NC(=O)[C@H](CCCN=C(N)N)NC(=O)[C@H](CC(C)C)NC(=O)[C@H](C)NC(=O)OCc1ccccc1)C(C)C)C(=O)O (Cbz-ALRRQEAVDAL-OH) | CaM kinase II (Homo sapiens, UniProt Q13557+Q13555+Q13554+Q9UQM7) | nM | 1000
CC(C)C[C@H](NC(=O)[C@H](C)NC(=O)[C@H](CC(=O)O)NC(=O)[C@@H](NC(=O)[C@H](C)NC(=O)[C@H](CCC(=O)O)NC(=O)[C@H](CCC(N)=O)NC(=O)[C@H](CCCN=C(N)N)NC(=O)[C@H](CCCN=C(N)N)NC(=O)[C@H](CC(C)C)NC(=O)[C@H](C)NC(=O)[C@H](CCCCN)NC(=O)[C@@H](N)CCCCN)C(C)C)C(=O)O (H-KKALRRQEAVDAL-OH) | CaM kinase II (Homo sapiens, UniProt Q13557+Q13555+Q13554+Q9UQM7) | nM | 32

What IC50 appears in the records for this compound with CaM kinase II (Homo sapiens, UniProt Q13557+Q13555+Q13554+Q9UQM7)? CC(C)C[C@H](NC(=O)[C@H](C)NC(=O)[C@H](CC(=O)O)NC(=O)[C@@H](NC(=O)[C@H](C)NC(=O)[C@H](CCC(=O)O)NC(=O)[C@H](CCC(N)=O)NC(=O)[C@H](CCCN=C(N)N)NC(=O)[C@H](CCCN=C(N)N)NC(=O)[C@H](CC(C)C)NC(=O)[C@H](C)NC(=O)[C@H](CCCCN)NC(=O)[C@@H](N)CCCCNC(=O)OCc1ccccc1[N+](=O)[O-])C(C)C)C(=O)O (H-K(X1)KALRRQEAVDAL-OH)
36

Which IC50 is reported with CaM kinase II (Homo sapiens, UniProt Q13557+Q13555+Q13554+Q9UQM7) for this entry: CC(C)C[C@H](NC(=O)[C@H](C)NC(=O)[C@H](CC(=O)O)NC(=O)[C@@H](NC(=O)[C@H](C)NC(=O)[C@H](CCC(=O)O)NC(=O)[C@H](CCC(N)=O)NC(=O)[C@H](CCCN=C(N)N)NC(=O)[C@H](CCCN=C(N)N)NC(=O)[C@H](CC(C)C)NC(=O)[C@H](C)NC(=O)[C@H](CCCCNC(=O)OCc1ccccc1[N+](=O)[O-])NC(=O)[C@@H](N)CCCCNC(=O)OCc1ccccc1[N+](=O)[O-])C(C)C)C(=O)O (H-K(X1)K(X1)ALRRQEAVDAL-OH) ?
1200
